# IC50 per record follows
# tested-on: UniProtKB P49841
# Sequence (P49841 whole entry): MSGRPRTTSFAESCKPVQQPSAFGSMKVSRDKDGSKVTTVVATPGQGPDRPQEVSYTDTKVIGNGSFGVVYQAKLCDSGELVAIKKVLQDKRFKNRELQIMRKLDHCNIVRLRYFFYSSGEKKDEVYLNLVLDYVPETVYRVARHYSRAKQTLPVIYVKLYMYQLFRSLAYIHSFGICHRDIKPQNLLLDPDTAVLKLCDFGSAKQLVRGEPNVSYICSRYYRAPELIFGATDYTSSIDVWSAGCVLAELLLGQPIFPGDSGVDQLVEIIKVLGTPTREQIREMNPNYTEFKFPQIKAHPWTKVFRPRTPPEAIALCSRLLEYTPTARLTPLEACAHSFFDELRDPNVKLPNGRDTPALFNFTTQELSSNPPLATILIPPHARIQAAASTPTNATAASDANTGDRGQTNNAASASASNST
# run-description: Inhibition of human recombinant N-terminal His6-tagged human GSK-3beta expressed in Baculovirus infected SF9 cells using prephosphorylated-GS2 polypeptide as substrate after 30 mins by kinase-Glo reagent based luminescence assay
Lab book: enter the figure in µM, no units written.

{"compound": "O=C(Nc1ccccn1)c1ccc(C2CC(=O)N(Cc3ccccc3[N+](=O)[O-])c3ccccc3S2)cc1 (centres undefined)", "assay-readout": "IC50", "units": "µM", "reported-measurement": 35}
{"compound": "O=C(NCc1ccc(Cl)cc1)c1ccc(C2CC(=O)N(Cc3ccccc3[N+](=O)[O-])c3ccccc3S2)cc1 (centres undefined)", "assay-readout": "IC50", "units": "µM", "reported-measurement": 33}
{"compound": "CCCCNC(=O)c1ccc(C2CC(=O)N(Cc3ccccc3[N+](=O)[O-])c3ccccc3S2)cc1 (centres undefined)", "assay-readout": "IC50", "units": "µM", "reported-measurement": 22}

From here, focus on the item given below.
So, COC(=O)c1ccc(C2CC(=O)N(Cc3ccccc3[N+](=O)[O-])c3ccccc3S2)cc1 (centres undefined) ? Its IC50 was 35

Cited source: ChEMBL document CHEMBL4270659
